Percent Removal of a 3-day Oral Biofilm values for the compounds below.
- System: 3-day old biofilm of the artificial mouth consortium of bacteria (A. naeslundii, S. oralis, V. parvula, L. casei, F. nucleatum) and S. mutans
- experiment-description: In vitro biofilm removal, 3-day old biofilm (protocol of Example 2)
- Format: cell-based
- settings: […] ionic liquid in base prototype mouth rinse of Table 1; 15 minutes; relative to water control
Express your answer in %, writing the number without its unit.

>>> reading("CCOS(=O)(=O)[O-].CCn1cc[n+](C)c1 [EMIM Ethyl SO4, EMIM ethyl sulfate]")
48.1
>>> reading("CCCCn1cc[n+](C)c1.COS(=O)(=O)[O-] [BMIM MeSO4, BMIM methyl sulfate]")
53.9
>>> reading("COS(=O)(=O)[O-].Cc1n(C)cc[n+]1C [TMIM MeSO4]")
51.8
>>> reading("CCCCn1cc[n+](C)c1.[Br-] [BMIM Br]")
48.0
>>> reading("CC(=O)[O-].CCn1cc[n+](C)c1 [EMIM OAc, EMIM acetate]")
52.1
>>> reading("CC(=O)[O-].CCCCn1cc[n+](C)c1 [BMIM OAc, BMIM acetate]")
55.9

Entry CCCCn1cc[n+](C)c1.[Cl-] [BMIM Cl] : reported Percent Removal of a 3-day Oral Biofilm = ?
43.8

Then CCOP(=O)([O-])OCC.CCn1cc[n+](C)c1 [EMIM diethyl PO4, EMIM diethyl phosphate] ?
52.7

* * *

- Tested on: 3-day old biofilm of the artificial mouth consortium of bacteria (A. naeslundii, S. oralis, V. parvula, L. casei, F. nucleatum) and S. mutans
- experiment-description: In vitro biofilm removal, 3-day old biofilm (protocol of Example 2)
- Assay type: cell-based
- settings: […] ionic liquid in base prototype mouth rinse of Table 1; 15 minutes; relative to water control
quantity-measured: Percent Removal of a 3-day Oral Biofilm (%)
Respond numerically; units are % and should not be typed.

Sample records with Percent Removal of a 3-day Oral Biofilm:
>>> reading("CCn1cc[n+](C)c1.Cc1ccc(S(=O)(=O)[O-])cc1 [EMIM Tosylate, EMIM tosylate]")
59.5
>>> reading("C=CCn1cc[n+](C)c1.[Cl-] [AMIM Cl]")
44.8
>>> reading("CCn1cc[n+](C)c1.[Cl-] [EMIM Cl]")
44.3

Look at this molecule and give its reported Percent Removal of a 3-day Oral Biofilm. CCCCCCCCOS(=O)(=O)[O-].CCCCn1cc[n+](C)c1 [BMIM Octyl SO4, BMIM octyl sulfate]
58.6
